Target sequence: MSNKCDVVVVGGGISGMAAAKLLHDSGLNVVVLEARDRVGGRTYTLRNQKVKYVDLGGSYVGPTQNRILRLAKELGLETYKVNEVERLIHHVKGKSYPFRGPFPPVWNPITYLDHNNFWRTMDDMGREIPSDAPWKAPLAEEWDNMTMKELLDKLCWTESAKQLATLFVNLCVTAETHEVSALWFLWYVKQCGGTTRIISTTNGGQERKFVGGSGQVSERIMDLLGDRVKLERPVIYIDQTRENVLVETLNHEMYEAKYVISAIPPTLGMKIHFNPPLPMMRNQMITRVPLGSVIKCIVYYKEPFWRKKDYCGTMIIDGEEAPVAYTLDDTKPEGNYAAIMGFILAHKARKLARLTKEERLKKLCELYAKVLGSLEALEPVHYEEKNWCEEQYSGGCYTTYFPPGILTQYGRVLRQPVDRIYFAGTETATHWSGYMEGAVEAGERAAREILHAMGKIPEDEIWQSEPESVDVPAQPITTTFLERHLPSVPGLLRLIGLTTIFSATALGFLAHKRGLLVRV
quantity kind: Ki (µM)
// return numeric value only (unit: µM, not printed)

Qu. Ki lookup needed for CC(C)=CCC1C(=O)C(=O)c2ccccc2C1=O (stereo unspecified) , thanks.
Ans. 59
